Molecular target: Sphingosine 1-phosphate receptor 2 (Homo sapiens) (UniProt O95136)
Sequence (O95136 whole entry, looked up): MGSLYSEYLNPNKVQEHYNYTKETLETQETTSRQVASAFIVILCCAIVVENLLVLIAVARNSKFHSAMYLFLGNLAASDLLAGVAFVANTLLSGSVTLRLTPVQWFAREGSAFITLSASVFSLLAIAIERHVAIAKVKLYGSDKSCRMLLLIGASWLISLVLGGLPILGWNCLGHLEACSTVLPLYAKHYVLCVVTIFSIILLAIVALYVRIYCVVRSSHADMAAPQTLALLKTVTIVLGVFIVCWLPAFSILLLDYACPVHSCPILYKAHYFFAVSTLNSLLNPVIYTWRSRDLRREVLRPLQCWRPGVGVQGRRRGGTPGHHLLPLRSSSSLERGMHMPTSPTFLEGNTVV
Assay: human S1P2 receptor antagonists, primary screen, cell-based (AID 736);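 also: CRE beta-lactamase reporter cells expressing human S1P2 stimulated with S1P; 0% = agonist at EC80 alone and 100% = agonist plus reference antagonist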
Conditions: cell-based S1P2 antagonist assay, at 5 µM, stronger effect = higher value
In all, about 97,000 compounds went through this assay and about 210 (0.22%) were called active. Shown is part of a subset that was picked to be rich in actives.
If the reported inhibition equals or exceeds 10%, assign label 1. If not, assign label 0.

Consider the following illustrative entries.
Prompt: Kindly determine if inhibition recorded for `c1ccc(CC2CCN(c3nc4ccccc4n4cnnc34)CC2)cc1` is above or exactly 10%.
Response: label 0

Prompt: // query: `COc1ccc(Nc2ncc(C(=O)N3CCN(c4ccccc4OC)CC3)c3ccccc23)cc1`
Response: label 0

Prompt: Similarly, `COc1ccc(N2CCN(Cc3ccc(Br)s3)CC2)cc1` ?
Response: label 0

Okay, now this molecule:
Prompt: Does `O=C(Cc1ccc(-n2c(=O)c3sccc3n(Cc3ccc(F)cc3)c2=O)cc1)NCc1ccco1` have a reported inhibition of at least 10%?
Response: label 1
